Give TGI for every item shown.
system: MALME-3M melanoma; experiment: NCI tumour cell line growth inhibition, 48 h

INPUT: Field request: TGI | item: NCC(=O)Nc1ccc(-n2nc(C(F)(F)F)cc2-c2ccc3c(ccc4ccccc43)c2)cc1
OUTPUT: 3.51 µM

INPUT: Field request: TGI | item: COC(=O)C(=C\Sc1ccccc1)/C=C/C(=O)OC(C)(C)C
OUTPUT: 30.7 µM

INPUT: Field request: TGI | item: CCC(C#N)N(Cc1ccc(CN(C(=O)c2ccccc2)C(C#N)CC)cc1)C(=O)c1ccccc1 (stereo not given)
OUTPUT: 88.5 µM

INPUT: Field request: TGI | item: Cn1ccnc1SC(F)(F)c1nc2ccccc2o1
OUTPUT: > 100 µM

INPUT: Field request: TGI | item: C/C=C/C=C/C1=NN(c2cccc(S(=O)(=O)O)c2)C2(C1)C(Cl)C(=O)N2c1nc2ccccc2s1 (stereo not given)
OUTPUT: 32.7 µM

###

system: LOX IMVI melanoma; assay: NCI tumour cell line growth inhibition, 48 h
Measured Metric: TGI (µM)
// note: answer is a bare numeric in µM

INPUT: Form field - read-out: TGI; system: LOX IMVI melanoma; submitted item: Oc1ccc(Cl)cc1Cc1cc(Cl)cc(Cc2cc(Cl)ccc2O)c1O
OUTPUT: 9.82

INPUT: Form field - read-out: TGI; system: LOX IMVI melanoma; submitted item: Cc1nc2ccc(N=Nc3c(O)ccc4ccccc34)cc2[nH]1
OUTPUT: 32.4

INPUT: Form field - read-out: TGI; system: LOX IMVI melanoma; submitted item: COc1c(Nc2ncc(Cl)c(N[C@@H]3[C@H]4C=CC(C4)[C@@H]3C(N)=O)n2)ccc2c1CC[C@@H](N1CCOCC1)CC2
OUTPUT: 6.23

###

test system: ACHN renal; experiment: NCI tumour cell line growth inhibition, 48 h
Give TGI for every item shown.
// note: answer is a bare numeric in µM

INPUT: Field request: TGI | item: Nc1nn(C(=O)Nc2ccc(Cc3ccccc3)cc2)c2ccc(Cl)cc12
OUTPUT: 26.4

INPUT: Field request: TGI | item: C/C=C1/CN2CCC34C5=CC(=O)C(c6cc7c(cc6OC)N(C)C6=C(C(=O)OC)CC8(CC)CCCN9CCC67C98)=CC5=NC23CCC1C4C(=O)OC (stereo not given)
OUTPUT: 29.1

INPUT: Field request: TGI | item: Cc1cc(C)c2c(=O)n(CN3CCN(c4ccccc4)CC3)sc2n1
OUTPUT: 35.2

INPUT: Field request: TGI | item: COc1ccc(Nc2nc(NCc3ccccc3)c3ccccc3n2)cc1
OUTPUT: 14.1

###

system: NCI-H226 lung; experiment: NCI tumour cell line growth inhibition, 48 h
Give TGI for every item shown.

INPUT: Field request: TGI | item: Clc1ccc(-c2nc(-c3c[nH]c4ncccc34)cs2)cc1
OUTPUT: > 100 µM

INPUT: Field request: TGI | item: Cc1ccc(/C=C/C(=O)c2sc(C(N)=S)nc2C)cc1
OUTPUT: > 100 µM

INPUT: Field request: TGI | item: O=C(CN1CCOCC1)c1ccc2[nH]c(=O)oc2c1
OUTPUT: > 100 µM

INPUT: Field request: TGI | item: O=C(CSc1nc2ccc(Cl)cc2c(=O)n1-c1ccccc1)N=Nc1c(O)[nH]c2ccc(F)cc12
OUTPUT: 12.6 µM

INPUT: Field request: TGI | item: O=C(c1ccsc1)c1cc2c(s1)C(=O)c1ccsc1C2=O
OUTPUT: 1.11 µM

INPUT: Field request: TGI | item: CNC(=S)NNC1=NCCCN1
OUTPUT: > 100 µM

INPUT: Field request: TGI | item: CC(C)=C1C(=O)C[C@]2(C)C/C=C(\C)CC/C=C(\C)CC[C@@H]12
OUTPUT: 16 µM

INPUT: Field request: TGI | item: O=[n+]1cnn([O-])c2ccccc21
OUTPUT: > 100 µM

INPUT: Field request: TGI | item: COc1cc(C2=Nc3c/c(=C\c4c(O)[nH]c5ccc(Cl)cc45)ccc3=N2)cc(OC)c1OC
OUTPUT: 29.7 µM

INPUT: Field request: TGI | item: COc1ccc(S(=O)(=O)Nc2cc(/C=C\c3cc(OC)c(OC)c(OC)c3)cc(OC)c2OC)cc1OC
OUTPUT: > 100 µM

INPUT: Field request: TGI | item: CN(C)c1ccc(/C=C2\C[C@H]3[C@@H]4CCC5=CC(=O)CC[C@]5(C)[C@H]4CC[C@]3(C)C2=O)cc1
OUTPUT: > 100 µM

INPUT: Field request: TGI | item: Cc1oncc1C(=O)Nc1ccc(C(F)(F)F)cc1
OUTPUT: > 100 µM

INPUT: Field request: TGI | item: Cn1c(=O)c2c(ncn2CCCCn2ccnc2[N+](=O)[O-])n(C)c1=O
OUTPUT: > 100 µM

INPUT: Field request: TGI | item: Clc1ccc(NCc2nnc(COc3ccc(OCc4nnc(CNc5ccc(Cl)cc5)o4)c(Cl)c3)o2)cc1
OUTPUT: > 100 µM

INPUT: Field request: TGI | item: COC(=O)C1C(=O)O[C@@H](c2ccc(OC)cc2)C1C(=O)OC (some centres not stated)
OUTPUT: > 100 µM

INPUT: Field request: TGI | item: O=C(/C=C/c1ccccc1Cl)c1ccc(O)cc1
OUTPUT: 42.8 µM

INPUT: Field request: TGI | item: S=C1CNC(=S)CN1
OUTPUT: > 100 µM

###

system: LOX IMVI melanoma; experiment: NCI tumour cell line growth inhibition, 48 h; in the data active means GI50 below about 0.43 µM; inactive means the rest
In this exercise, the only acceptable responses are active, inactive

INPUT: Dear all, I need the recorded test outcome for O=Cc1ncc(-c2ccc(C(F)(F)F)cc2)c(NC2CCCCCC2)n1 , thank you.
OUTPUT: inactive

INPUT: Dear all, I need the recorded test outcome for Cc1cc(N2CCOCC2)nc(N(CCNc2ccnc3cc(Cl)ccc23)Cc2ccco2)n1 , thank you.
OUTPUT: inactive

INPUT: Dear all, I need the recorded test outcome for Clc1ccc(-c2nc(-c3c[nH]c4ncccc34)cs2)cc1 , thank you.
OUTPUT: inactive

INPUT: Dear all, I need the recorded test outcome for COc1cc(C2=Nc3c/c(=C\c4c(O)[nH]c5ccc(Cl)cc45)ccc3=N2)cc(OC)c1OC , thank you.
OUTPUT: inactive

INPUT: Dear all, I need the recorded test outcome for C[C@H](Nc1ccc(C#N)n(C)c1=O)c1cc2cc(Cl)ccc2[nH]c1=O , thank you.
OUTPUT: inactive

INPUT: Dear all, I need the recorded test outcome for O=C(Nc1cccnc1)c1cccs1 , thank you.
OUTPUT: inactive

INPUT: Dear all, I need the recorded test outcome for COc1cccc(C2=NN(C(C)=O)C(c3cc(OC)c(OC)c(OC)c3)C2)c1 (stereo unspecified) , thank you.
OUTPUT: inactive

INPUT: Dear all, I need the recorded test outcome for CCc1ccc(/C(C#N)=C/C=C/c2ccccc2)cc1 , thank you.
OUTPUT: inactive

INPUT: Dear all, I need the recorded test outcome for O=C(/C=C/c1ccccc1O)c1ccccc1 , thank you.
OUTPUT: inactive

INPUT: Dear all, I need the recorded test outcome for CN(C)c1cc2c(Nc3ccc4nc(Cc5ccccc5)[nH]c4c3)ncnc2cn1 , thank you.
OUTPUT: inactive

INPUT: Dear all, I need the recorded test outcome for COc1cc2c3c(n(CCCN=[N+]=[N-])c(=O)c2cc1OC)-c1ccc(N)cc1C3=O , thank you.
OUTPUT: active

INPUT: Dear all, I need the recorded test outcome for CCCCC(SC(=S)N(CC)CC)C(=O)Nc1nc(CC(=O)OCC)cs1 (stereo unspecified) , thank you.
OUTPUT: inactive

INPUT: Dear all, I need the recorded test outcome for O=C(c1ccc(F)c(F)c1Nc1ccc(I)cc1F)N1CC(O)([C@H]2CCCCN2)C1 , thank you.
OUTPUT: inactive

INPUT: Dear all, I need the recorded test outcome for NC(=O)c1ncn(C2OC(CO)C(O)C2O)n1 (stereo unspecified) , thank you.
OUTPUT: inactive

INPUT: Dear all, I need the recorded test outcome for CCS(=O)(=O)c1ccc(OC)c(Nc2ncc(-c3cccc(-c4ccccc4F)c3)o2)c1 , thank you.
OUTPUT: inactive

INPUT: Dear all, I need the recorded test outcome for O=C(O[C@H]1CN[C@H](C#Cc2cc3ncnc(Nc4ccc(Cc5ccccc5)cc4)c3s2)C1)N1CCOCC1 , thank you.
OUTPUT: inactive

###

tested on: U251 CNS
In this exercise, the only acceptable responses are active, inactive

INPUT: Dear all, I need the recorded test outcome for O=C(c1ccc(F)c(F)c1Nc1ccc(I)cc1F)N1CC(O)([C@H]2CCCCN2)C1 , thank you.
OUTPUT: inactive

INPUT: Dear all, I need the recorded test outcome for CN(C)c1cc2c(Nc3ccc4nc(Cc5ccccc5)[nH]c4c3)ncnc2cn1 , thank you.
OUTPUT: inactive

INPUT: Dear all, I need the recorded test outcome for C[C@@]12CCC[C@@](C)(C(=O)O)C1CC[C@]13C=C(CO)[C@](O)(CCC12)C3 (some centres undefined) , thank you.
OUTPUT: inactive

INPUT: Dear all, I need the recorded test outcome for S=C(Nc1ccc(-c2nc3ccccc3s2)cc1)Nc1ccccn1 , thank you.
OUTPUT: inactive

INPUT: Dear all, I need the recorded test outcome for O=C(Nc1cccc(-n2cc(-c3ccncc3)c(-c3cc(O)cc(Cl)c3)n2)c1)Nc1ccc(Cl)c(Cl)c1 , thank you.
OUTPUT: inactive

INPUT: Dear all, I need the recorded test outcome for O=C1OCC2=C1C(c1ccccc1)c1cc3c(cc1N2CCO)CCC3 (centres undefined) , thank you.
OUTPUT: active

INPUT: Dear all, I need the recorded test outcome for COC(=O)c1c2c(c[n+]([O-])c1C)C(=O)C(NCc1ccccc1)=CC2=O , thank you.
OUTPUT: inactive

INPUT: Dear all, I need the recorded test outcome for COc1c(Nc2ncc(Cl)c(N[C@@H]3[C@H]4C=CC(C4)[C@@H]3C(N)=O)n2)ccc2c1CC[C@@H](N1CCOCC1)CC2 , thank you.
OUTPUT: inactive

INPUT: Dear all, I need the recorded test outcome for CCOc1ccc(/C=N/Nc2cc(C)nc3ccc(Cl)cc23)cc1 , thank you.
OUTPUT: inactive
